Origin of the recorded values: ChEMBL document CHEMBL5291721

- system tested: Type-1 angiotensin II receptor (Homo sapiens); also: assay procedure not described here
- Sequence (P30556 whole entry): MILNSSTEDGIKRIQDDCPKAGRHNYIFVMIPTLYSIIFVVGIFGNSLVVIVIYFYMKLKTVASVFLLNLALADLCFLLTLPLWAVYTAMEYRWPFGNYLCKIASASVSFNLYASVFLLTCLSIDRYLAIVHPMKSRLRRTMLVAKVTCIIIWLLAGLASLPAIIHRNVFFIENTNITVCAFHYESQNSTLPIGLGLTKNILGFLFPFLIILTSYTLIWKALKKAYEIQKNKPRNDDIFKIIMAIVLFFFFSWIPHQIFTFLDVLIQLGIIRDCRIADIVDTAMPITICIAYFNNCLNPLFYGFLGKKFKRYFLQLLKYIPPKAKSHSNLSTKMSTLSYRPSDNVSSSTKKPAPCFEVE
Reported AC50 values follow for various molecules

[in] Give Type-1 angiotensin II receptor (Homo sapiens) AC50 for the following molecule: CC1=C(CC(=O)O)c2cc(F)ccc2/C1=C\c1ccc([S+](C)[O-])cc1 (configuration not stated)
[out] > 30 µM

[in] // output AC50; input CC1Cc2ccccc2N1NC(=O)c1ccc(Cl)c(S(N)(=O)=O)c1 (configuration not stated) [INDAPAMIDE] ; system Type-1 angiotensin II receptor (Homo sapiens); also: assay procedure not described here
[out] > 30 µM

[in] GET AC50 where system = Type-1 angiotensin II receptor (Homo sapiens) and item = CN(Cc1ccc(C(C)(C)C)cc1)Cc1cccc2ccccc12 [BUTENAFINE]; also: assay procedure not described here
[out] > 10 µM

[in] Consider the molecule CN(C)CCOCC(=O)NC12CC3CC(CC(C3)C1)C2 [TROMANTADINE] tested on Type-1 angiotensin II receptor (Homo sapiens); state its AC50. Also: assay procedure not described here.
[out] > 30 µM

[in] Jot down AC50 (Type-1 angiotensin II receptor (Homo sapiens)) of CC1(C)O[C@@H]2C[C@H]3[C@@H]4CCC5=CC(=O)C=C[C@]5(C)[C@@]4(F)[C@@H](O)C[C@]3(C)[C@]2(C(=O)CO)O1 [TRIAMCINOLONE ACETONIDE] .
[out] > 30 µM

[in] Report the value of AC50 obtained on Type-1 angiotensin II receptor (Homo sapiens) for CCN(CC)C(C)C(=O)c1ccccc1 (configuration not stated) [DIETHYLPROPION] .
[out] > 30 µM

[in] # lookup: Type-1 angiotensin II receptor (Homo sapiens) AC50, key = Cc1cnc(Nc2ccc(OCCN3CCCC3)cc2)nc1Nc1cccc(S(=O)(=O)NC(C)(C)C)c1 [FEDRATINIB]
[out] > 30 µM

[in] Lab note: Type-1 angiotensin II receptor (Homo sapiens) assay, enter AC50 for CC(C)(Oc1ccc(Cl)cc1)C(=O)OCCOC(=O)c1cccnc1 [ETOFIBRATE] here
[out] > 30 µM

[in] # lookup: Type-1 angiotensin II receptor (Homo sapiens) AC50, key = CC(C)CN(C[C@@H](O)[C@H](Cc1ccccc1)NC(=O)O[C@H]1CCOC1)S(=O)(=O)c1ccc(N)cc1
[out] > 10 µM

[in] Give Type-1 angiotensin II receptor (Homo sapiens) AC50 for the following molecule: c1cnc2cc3c(cc2n1)[C@@H]1CNC[C@H]3C1 [VARENICLINE]
[out] > 30 µM

[in] Name the recorded AC50 of CCCO[C@H]1[C@@H]([C@@H](COCc2ccc(Cl)cc2)OCc2ccc(Cl)cc2)OC(OCC)[C@@H]1O (some centres not stated) [CLOBENOSIDE] , assay system Type-1 angiotensin II receptor (Homo sapiens). Also: assay procedure not described here.
[out] > 30 µM

[in] Write down measured AC50 (Type-1 angiotensin II receptor (Homo sapiens)) for this molecule. COC(=O)c1ccc2c(c1)NC(=O)/C2=C(\Nc1ccc(N(C)C(=O)CN2CCN(C)CC2)cc1)c1ccccc1 [NINTEDANIB]
[out] > 30 µM

====

As a worked illustration, we turn to AC50 data collected for Progesterone receptor (Homo sapiens).

{"columns": ["molecule", "AC50"],
 "data": [
  ["N#Cc1ccnc(N2C(=O)CC[C@H]2C(=O)N(c2cncc(F)c2)[C@H](C(=O)NC2CC(F)(F)C2)c2ccccc2Cl)c1", "> 30 µM"],
  ["CC1=C(/C=C/C(C)=C/C=C/C(C)=C\\C(=O)O)C(C)(C)CCC1", "> 30 µM"],
  ["CC1(C)CCC(C)(C)c2cc(NC(=O)c3ccc(C(=O)O)cc3)ccc21", "29.2 µM"],
  ["COc1c(OCCCN2CCOCC2)ccc2c1N=C(NC(=O)c1cnc(N)nc1)N1CCN=C21", "> 30 µM"]
]}

[in] // fetch AC50 for CN1CCN(C(c2ccccc2)c2ccc(Cl)cc2)CC1 (stereo unspecified) ; system: Progesterone receptor (Homo sapiens); also: assay procedure not described here
Sequence (P06401 whole entry): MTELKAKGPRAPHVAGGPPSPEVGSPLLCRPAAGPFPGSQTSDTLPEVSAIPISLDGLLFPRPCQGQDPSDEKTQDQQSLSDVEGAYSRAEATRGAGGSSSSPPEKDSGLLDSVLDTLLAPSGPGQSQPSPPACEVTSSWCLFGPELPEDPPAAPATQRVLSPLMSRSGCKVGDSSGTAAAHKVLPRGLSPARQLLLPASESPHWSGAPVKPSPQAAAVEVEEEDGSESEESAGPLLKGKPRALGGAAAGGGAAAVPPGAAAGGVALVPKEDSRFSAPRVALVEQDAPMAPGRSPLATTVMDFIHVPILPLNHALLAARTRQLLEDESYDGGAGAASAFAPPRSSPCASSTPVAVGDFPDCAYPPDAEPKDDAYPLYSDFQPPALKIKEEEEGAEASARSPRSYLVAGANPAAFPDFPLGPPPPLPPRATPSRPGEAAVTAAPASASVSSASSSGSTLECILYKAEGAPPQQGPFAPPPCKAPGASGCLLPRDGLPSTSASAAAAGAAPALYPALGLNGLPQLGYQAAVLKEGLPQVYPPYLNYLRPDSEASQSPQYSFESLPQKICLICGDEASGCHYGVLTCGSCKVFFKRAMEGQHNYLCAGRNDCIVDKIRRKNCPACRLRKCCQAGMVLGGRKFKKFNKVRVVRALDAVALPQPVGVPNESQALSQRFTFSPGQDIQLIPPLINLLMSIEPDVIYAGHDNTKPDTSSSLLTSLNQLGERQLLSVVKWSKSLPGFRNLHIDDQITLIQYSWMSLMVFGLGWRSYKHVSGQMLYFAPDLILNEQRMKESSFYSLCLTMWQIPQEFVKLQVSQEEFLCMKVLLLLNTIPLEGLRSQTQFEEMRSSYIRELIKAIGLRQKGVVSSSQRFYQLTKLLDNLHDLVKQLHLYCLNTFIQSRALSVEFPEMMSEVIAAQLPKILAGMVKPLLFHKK
[out] > 30 µM

====

As a worked illustration, we turn to AC50 data collected for Adenosine receptor A1 (Homo sapiens, UniProt P30542).

{"columns": ["compound", "measured parameter", "value measured"],
 "data": [
  ["CC(C)(CO)c1cc2cc(NC(=O)C3(c4ccc5c(c4)OC(F)(F)O5)CC3)c(F)cc2n1C[C@@H](O)CO", "AC50", "> 30 µM"],
  ["O=C(O)CCCC[C@@H]1SC[C@@H]2NC(=O)N[C@@H]21", "AC50", "> 10 µM"],
  ["NCCCCCC(=O)O", "AC50", "> 10 µM"],
  ["CN1CCC(=C2c3ccccc3CC(=O)c3sccc32)CC1", "AC50", "> 10 µM"]
]}

Below: the item to evaluate.
[in] Determine reported AC50 for CC(C)(Oc1ccc(Cl)cc1)C(=O)OCCOC(=O)c1cccnc1 [ETOFIBRATE] ; test system: Adenosine receptor A1 (Homo sapiens, UniProt P30542). Also: assay procedure not described here.
Sequence (P30542 whole entry): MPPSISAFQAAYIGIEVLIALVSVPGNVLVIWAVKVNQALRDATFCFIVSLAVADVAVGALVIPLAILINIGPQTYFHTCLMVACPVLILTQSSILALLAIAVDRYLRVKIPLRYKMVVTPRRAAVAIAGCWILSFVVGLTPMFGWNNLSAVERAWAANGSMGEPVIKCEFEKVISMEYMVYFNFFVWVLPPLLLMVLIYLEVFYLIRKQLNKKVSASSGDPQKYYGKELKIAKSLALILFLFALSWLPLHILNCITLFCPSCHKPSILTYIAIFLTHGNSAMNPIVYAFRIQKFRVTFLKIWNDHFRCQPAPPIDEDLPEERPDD
[out] > 30 µM

====

Read-out record for B2 bradykinin receptor (Homo sapiens): AC50

{"columns": ["molecule", "system tested", "value measured"],
 "data": [
  ["CC(=O)N1CCN(c2ccc(OCC3COC(Cn4ccnc4)(c4ccc(Cl)cc4Cl)O3)cc2)CC1 (stereo unspecified)", "B2 bradykinin receptor (Homo sapiens)", "> 10 µM"]
]}

[in] Read off the recorded AC50 for CCN(CC)C(C)C(=O)c1ccccc1 (stereo unspecified)
[out] > 30 µM

[in] Output measured AC50 for this item: CCOC(=O)O[C@]1(C(=O)COC(=O)CC)CC[C@H]2[C@@H]3CCC4=CC(=O)C=C[C@]4(C)[C@H]3[C@@H](O)C[C@@]21C [PREDNICARBATE]
[out] > 10 µM

[in] Consider the molecule CC(=O)OCC1=C(C(=O)O)N2C(=O)[C@@H](NC(=O)Cc3cccs3)[C@H]2SC1 . State its measured AC50.
[out] > 30 µM

[in] Dear colleague, please send me the reported AC50 for C[C@]12CCC(=O)C=C1CC[C@H]1[C@@H]3CC[C@](O)(C(=O)CO)[C@@]3(C)C[C@H](O)[C@@]12F when you can.
[out] > 30 µM

[in] Hello, please tell me recorded AC50 for this one: N=C(N)NC(=O)Cc1c(Cl)cccc1Cl
[out] > 30 µM

====

Parameter AC50: see the listing below.
- system tested: Alpha-2A adrenergic receptor (Homo sapiens, UniProt P08913); also: assay procedure not described here
- Sequence (P08913 whole entry): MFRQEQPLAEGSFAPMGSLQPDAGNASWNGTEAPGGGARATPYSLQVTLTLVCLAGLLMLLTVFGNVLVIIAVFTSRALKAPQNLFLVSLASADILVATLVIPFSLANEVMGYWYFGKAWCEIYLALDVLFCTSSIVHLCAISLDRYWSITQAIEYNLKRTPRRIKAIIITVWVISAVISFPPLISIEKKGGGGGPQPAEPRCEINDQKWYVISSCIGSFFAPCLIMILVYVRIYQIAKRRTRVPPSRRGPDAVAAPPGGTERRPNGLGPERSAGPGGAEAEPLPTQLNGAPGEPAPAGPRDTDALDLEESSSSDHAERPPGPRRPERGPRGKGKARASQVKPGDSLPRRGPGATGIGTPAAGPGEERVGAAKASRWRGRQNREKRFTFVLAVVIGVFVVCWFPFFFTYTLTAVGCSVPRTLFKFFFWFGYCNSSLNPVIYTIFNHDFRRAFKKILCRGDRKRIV
- Type: functional, cell-based

Answered examples (5):
{"columns": ["compound", "value measured"],
 "data": [
  ["CS(=O)(=O)Nc1ccc([N+](=O)[O-])cc1Oc1ccccc1 [NIMESULIDE]", "> 30 µM"],
  ["CCC(=O)[C@@]1(C)[C@H](C)C[C@H]2[C@@H]3CCC4=CC(=O)C=C[C@]4(C)[C@H]3[C@@H](O)C[C@@]21C [RIMEXOLONE]", "> 10 µM"],
  ["c1cnc2cc3c(cc2n1)[C@@H]1CNC[C@H]3C1", "> 30 µM"],
  ["C=C(c1ccccc1OCc1cccc(Cl)c1)n1ccnc1", "> 10 µM"],
  ["CC(C)(N)Cc1ccccc1", "> 10 µM"]
]}

[in] Output measured AC50 for this item: O=C(O)c1ccc2nc(-c3cc(Cl)cc(Cl)c3)oc2c1
[out] > 30 µM

[in] Recall and state the measured AC50 for CCC1(CC)C(=O)NC(=O)N(C)C1=O .
[out] > 10 µM

[in] // Input: CN(Cc1ccc(C(C)(C)C)cc1)Cc1cccc2ccccc12 . Output its AC50 only.
[out] > 10 µM

====

- system tested: Adenosine receptor A3 (Homo sapiens); also: assay procedure not described here
- Sequence (P0DMS8 whole entry): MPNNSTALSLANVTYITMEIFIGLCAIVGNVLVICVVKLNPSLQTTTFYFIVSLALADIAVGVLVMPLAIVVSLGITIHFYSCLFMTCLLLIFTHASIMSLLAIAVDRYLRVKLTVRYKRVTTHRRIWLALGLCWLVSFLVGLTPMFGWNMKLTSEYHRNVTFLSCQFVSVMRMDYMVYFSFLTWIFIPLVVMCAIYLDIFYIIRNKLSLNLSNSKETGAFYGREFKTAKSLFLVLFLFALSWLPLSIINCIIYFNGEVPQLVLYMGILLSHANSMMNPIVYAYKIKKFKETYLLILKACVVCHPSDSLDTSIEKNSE
measured parameter: AC50

{"columns": ["molecule", "AC50"],
 "data": [
  ["Cc1cccc(C)c1NC(=O)c1cc(S(N)(=O)=O)c(Cl)cc1O [XIPAMIDE]", "> 30 µM"]
]}

[in] Return reported AC50 for target or system Adenosine receptor A3 (Homo sapiens), item N=C(N)NCC1COc2ccccc2O1 (centres undefined) . Also: assay procedure not described here.
[out] > 30 µM

[in] Report AC50 from Adenosine receptor A3 (Homo sapiens) testing of CCn1c(=O)c2c(nc(/C=C/c3ccc(OC)c(OC)c3)n2C)n(CC)c1=O
[out] > 10 µM

[in] Quote Adenosine receptor A3 (Homo sapiens) AC50 for entry NC(=O)C1(N2CCCCC2)CCN(CCCN2c3ccccc3CCc3ccccc32)CC1 .
[out] > 30 µM

[in] Under Adenosine receptor A3 (Homo sapiens): report AC50 of CC(=O)OCC(=O)[C@@]1(O)CC[C@H]2[C@@H]3C[C@H](C)C4=CC(=O)C=C[C@]4(C)[C@H]3[C@@H](O)C[C@@]21C [METHYLPREDNISOLONE ACETATE] .
[out] > 30 µM

[in] Lab note: Adenosine receptor A3 (Homo sapiens) assay, enter AC50 for N#Cc1ccnc(N2C(=O)CC[C@H]2C(=O)N(c2cncc(F)c2)[C@H](C(=O)NC2CC(F)(F)C2)c2ccccc2Cl)c1 here
[out] > 30 µM

[in] Report AC50 from Adenosine receptor A3 (Homo sapiens) testing of CNC(=O)c1cnn(-c2nc(N)c3ncn([C@@H]4O[C@H](CO)[C@@H](O)[C@H]4O)c3n2)c1 [REGADENOSON ANHYDROUS]
[out] 0.481 µM

[in] Tell me its AC50 on Adenosine receptor A3 (Homo sapiens): [H]/N=C(/N)NS(=O)(=O)c1ccc(N)cc1
[out] > 30 µM

[in] Please tell me the measured AC50 for CN(C)CCN(Cc1ccccc1)c1ccccn1 ; system: Adenosine receptor A3 (Homo sapiens). Also: assay procedure not described here.
[out] > 30 µM

[in] Give reported AC50 for CC(NCCC(c1ccccc1)c1ccccc1)c1ccccc1 (centres undefined) (Adenosine receptor A3 (Homo sapiens))
[out] 26.8 µM

[in] Please indicate recorded AC50 of Cc1c(C(C)C)c(=O)n(-c2ccccc2)n1C measured with Adenosine receptor A3 (Homo sapiens).
[out] 21.9 µM

[in] Write AC50 of Nc1ccc(C(=O)NCC(=O)O)cc1 ; system used: Adenosine receptor A3 (Homo sapiens); also: assay procedure not described here
[out] > 30 µM

[in] Please report the measured AC50 for CC1=C(/C=C/C(C)=C/C=C/C(C)=C\C(=O)O)C(C)(C)CCC1 tested on Adenosine receptor A3 (Homo sapiens). Also: assay procedure not described here.
[out] > 30 µM

[in] Specify the recorded AC50 for CC(C)NC[C@H](O)COc1ccc(CCOCC2CC2)cc1 , system: Adenosine receptor A3 (Homo sapiens). Also: assay procedure not described here.
[out] > 30 µM
